tested on: Molm13; experiment: cell viability relative to DMSO control (bortezomib = 0%); higher = less growth inhibition; conditions: 10 nM; 72 h
parameter: cell viability

molecule=CC(C)(C)c1nc(-c2cccc(NS(=O)(=O)c3c(F)cccc3F)c2F)c(-c2ccnc(N)n2)s1 measured=98.4%
molecule=CN1CCN(c2cccc(Nc3nc4c(-c5ccc(S(C)(=O)=O)cc5)cccn4n3)c2)CC1 measured=118%
molecule=COc1cc(N2CCOCC2)ccc1Nc1ncc(F)c(Nc2ccccc2NS(C)(=O)=O)n1 measured=98.1%
molecule=COc1cc2nccc(Oc3ccc(NC(=O)Nc4cc(C)on4)c(Cl)c3)c2cc1OC measured=96.3%
molecule="N#CC(c1ccnc(OCc2ccc(CN3CCOCC3)cc2)n1)c1nc2ccccc2s1 (centres undefined)" measured=107%
molecule=Cc1ccc(C(=O)Nc2ccc(CN3CCN(C)CC3)c(C(F)(F)F)c2)cc1C#Cc1cnc2[nH]ncc2c1 measured=-13.5%
molecule=CC(C)(C)[Si](C)(C)Oc1ccc2oc(=O)c3c(c2c1)CCCN3 measured=108%
molecule=Cc1cc(Nc2ncc(Cl)c(Nc3ccccc3S(=O)(=O)C(C)C)n2)c(OC(C)C)cc1C1CCNCC1 measured=110%
molecule=COc1cc2ncnc(Nc3ccc(Cl)cc3F)c2cc1OC measured=108%
molecule=C[C@@H]1COCCN1c1cc(C2([S@](C)(=N)=O)CC2)nc(-c2cc[nH]c3nccc2-3)n1 measured=114%
molecule=CNC(=O)c1ccccc1Nc1nc(Nc2ccc(N3CCOCC3)cc2OC)ncc1Cl measured=90.5%
molecule=Cc1c(CN2CCN(S(C)(=O)=O)CC2)sc2c(N3CCOCC3)nc(-c3cnc(N)nc3)nc12 measured=106%
molecule=N#C/C(=C\c1ccc(O)c(O)c1)C(=O)NCc1ccccc1 measured=96.4%
molecule="O=C(Nc1ccccc1C(=O)NC1CCCCNC1=O)c1cc2ccccc2s1 (centres undefined)" measured=98.3%
molecule=O=C(O)CCC(=O)Nc1ccc(Br)cn1 measured=92.5%
molecule="C=CC(=O)Nc1cc2c(Nc3ccc(F)c(Cl)c3)ncnc2cc1OCCCN1CCOCC1 [Canertinib (CI-1033)]" measured=118%
molecule=COc1cc2c(Oc3ccc(NC(=O)C4(C(=O)Nc5ccc(F)cc5)CC4)cc3F)ccnc2cc1OCCCN1CCOCC1 measured=14.3%
molecule=CCCCCCCCCCCCCCCCCCOP(=O)([O-])OC1CC[N+](C)(C)CC1 measured=93.8%
molecule=Cc1cc(Nc2cc(N3CCN(C)CC3)nc(/C=C/c3ccccc3)n2)n[nH]1 measured=89.6%

---

test system: Mv4-11; test: cell viability relative to DMSO control (bortezomib = 0%); higher = less growth inhibition; settings: 10 nM; 72 h
Counter-ions that a name gives are not always drawn.
parameter: cell viability

molecule=CC(=O)c1c(C)c2cnc(Nc3ccc(N4CCNCC4)cn3)nc2n(C2CCCC2)c1=O measured=113%
molecule=COC(=O)C1=CC[C@@]23CC[C@@H]([C@@](C)(/C=C/C=C(\C)C(=O)O)OC2=O)[C@@]3(OC(C)=O)CC1 measured=104%
molecule=COc1cc(Nc2ncc3c(n2)-c2ccc(Cl)cc2C(c2c(F)cccc2OC)=NC3)ccc1C(=O)O measured=114%
molecule=CNc1nc(Nc2cn(C(C)(C)C#N)nc2C)ncc1C(F)(F)F measured=117%
molecule=Cc1cc(N2CCOCC2)ccc1Nc1nc(NC2CCCCC2)c2[nH]cnc2n1 measured=108%
molecule=N#C/C(=C\c1ccc(O)c(O)c1)C(=O)NCc1ccccc1 measured=101%
molecule="O.O.O.O.O=C([O-])CC(O)(CC(=O)[O-])C(=O)[O-].[Li+].[Li+].[Li+] [Lithium citrate tribasic tetrahydrate]" measured=114%
molecule=Cc1nc(Nc2cnn(C3CCNCC3)c2)nc2c1N(C)C(=O)c1cc3ccccc3cc1N2C measured=104%
molecule="COc1cc(Nc2ncc(F)c(Nc3ccc4c(n3)N(COP(=O)(O)O)C(=O)C(C)(C)O4)n2)cc(OC)c1OC [Fostamatinib (R788)]" measured=104%
molecule=Cc1cc(Nc2nn(-c3ccccc3)c(=O)c3ccccc23)n[nH]1 measured=101%
molecule=COc1cc2c(cc1OC)-c1[nH]nc(Nc3cccc(F)c3)c1C2 measured=116%
molecule=O=C1NC(=O)C(c2ccccc2[N+](=O)[O-])=C1Nc1ccc(O)c(Cl)c1 measured=120%
molecule=O=C(O)c1ccc(-c2c[nH]c3ncc(-c4ccccc4)cc23)cc1C1CCCC1 measured=96%
molecule="Cc1cc(C(C)Nc2ccccc2)c2nc(N3CCOCC3)cc(=O)n2c1 (stereo not drawn)" measured=100%
molecule="COc1ccc(S(=O)(=O)Nc2ccccc2CN(C)C/C=C/c2ccc(Cl)cc2)cc1 [KN-92 (hydrochloride)]" measured=109%
molecule=O=c1ccc2ccc(O)c(O)c2o1 measured=109%
molecule=COc1ccc(-c2oc3c(CC=C(C)C)c(O)cc(O)c3c(=O)c2O)cc1 measured=118%
molecule="CC(C)CCN1c2nc(Nc3cc(F)c(O)c(F)c3)ncc2N(C)C(=O)C1C (stereo not drawn)" measured=114%

---

Measured cell viability values are reported for all entries that follow.
system: Molm13; assay: cell viability relative to DMSO control (bortezomib = 0%); higher = less growth inhibition; conditions: 10 nM; 72 h
parameter: cell viability (%)

compound=COc1cc(OC2CCN(C)CC2)ccc1Nc1ncc2c(n1)n(C1CCCC1)c(=O)n2C target_or_test_system=Molm13 parameter="cell viability" unit=% measured=107
compound=CN1CCN(CCCNc2ncc(Cl)c(-c3cc4c(C(=O)NC5CC5)cccc4s3)n2)CC1 target_or_test_system=Molm13 parameter="cell viability" unit=% measured=110
compound=Nc1n[nH]c(N)c1N=Nc1ccc(O)cc1 target_or_test_system=Molm13 parameter="cell viability" unit=% measured=117
compound=O=C(NCc1cccc(O)c1)Nc1nc(-c2ccncc2)cs1 target_or_test_system=Molm13 parameter="cell viability" unit=% measured=88.6
compound="CN1C(=O)C(Cc2c[nH]c3ccccc23)NC1=S (centres undefined) [Necrostatin-1]" target_or_test_system=Molm13 parameter="cell viability" unit=% measured=106
compound="Cn1cc(C2=C(c3cn(CCCSC(=N)N)c4ccccc34)C(=O)NC2=O)c2ccccc21 [Bisindolylmaleimide IX (mesylate)]" target_or_test_system=Molm13 parameter="cell viability" unit=% measured=99.3
compound="COC(=O)c1ccc2c(c1)NC(=O)/C2=C(\\Nc1ccc(N(C)C(=O)CN2CCN(C)CC2)cc1)c1ccccc1 [Nintedanib (BIBF 1120)]" target_or_test_system=Molm13 parameter="cell viability" unit=% measured=83.6
compound=Cc1[nH]c(/C=C2\C(=O)Nc3ccccc32)c(C)c1CCC(=O)O target_or_test_system=Molm13 parameter="cell viability" unit=% measured=107
compound=N#Cc1c(O)c2c(-c3ccc(-c4ccccc4O)cc3)csc2[nH]c1=O target_or_test_system=Molm13 parameter="cell viability" unit=% measured=111

---

cell viability for assorted molecules
system: Molm13; assay: cell viability relative to DMSO control (bortezomib = 0%); higher = less growth inhibition; details: 10 nM; 72 h
parameter: cell viability (%)

structure_smiles=COc1cc2ncnc(Nc3ccc(O)c(Br)c3)c2cc1OC target_or_test_system=Molm13 measured=95.4
structure_smiles=C[C@H]1[C@H](C)CC[C@]2(C(=O)O)CC[C@]3(C)C(=CC[C@@H]4[C@@]5(C)C[C@@H](O)[C@H](O)[C@@](C)(CO)[C@@H]5CC[C@]43C)[C@H]12 target_or_test_system=Molm13 measured=107
structure_smiles=O=C(Nc1cc(Oc2cc(F)c(NC(=O)C3(C(=O)Nc4ccc(F)cc4)CC3)cc2F)ccn1)C1CC1 target_or_test_system=Molm13 measured=106
structure_smiles=CN1CCN(c2ccc(Nc3cc(-c4cccc(-n5ccc6cc(C7CC7)cc(F)c6c5=O)c4CO)cn(C)c3=O)nc2)CC1 target_or_test_system=Molm13 measured=99.6
structure_smiles=O=C1NCCSc2c1sc1ccc(O)cc21 target_or_test_system=Molm13 measured=92.9
structure_smiles=COc1ncc(-c2ccc3nccc(-c4ccnnc4)c3c2)cc1NS(=O)(=O)c1ccc(F)cc1F target_or_test_system=Molm13 measured=61.5
structure_smiles=Cn1cnc2c(F)c(Nc3ccc(Br)cc3Cl)c(C(=O)NOCCO)cc21 target_or_test_system=Molm13 measured=106
structure_smiles=CCS(=O)(=O)c1cccc(-c2cc(C(=O)NC3CCN(C)CC3)c(C)c3[nH]c4ncc(C)cc4c23)c1 target_or_test_system=Molm13 measured=75.1

---

test system: Molm13; assay: cell viability relative to DMSO control (bortezomib = 0%); higher = less growth inhibition; settings: 10 nM; 72 h
Counter-ions that a name gives are not always drawn.
parameter: cell viability

molecule=COCCOc1cnc2ccn([C@H](C)c3nnc4c(F)cc(-c5cnn(C)c5)cn34)c(=O)c2c1 measured=104%
molecule="CC(=O)CC(c1ccccc1)c1c(O)c2ccccc2oc1=O (stereo not drawn) [Warfarin sodium]" measured=105%
molecule=CCOc1cn(-c2ccc(F)cc2C)nc1C(=O)Nc1ccc(Oc2ccnc3cc(OC)c(OC)cc23)c(F)c1 measured=112%
molecule="C=CC(=O)Nc1cc(Nc2nccc(-c3cn(C)c4ccccc34)n2)c(OC)cc1N(C)CCN(C)C [AZD-9291 mesylate]" measured=102%
molecule=O=C1NC(=O)/C(=C/c2ccc3c(c2)OC(F)(F)O3)S1 measured=102%
molecule=NC(=O)c1ccc(NC(=O)NCc2cccc(C(=O)Nc3ccc4c(c3)CNCC4)c2)cc1 measured=117%
molecule=CCOc1cc2ncc(C#N)c(Nc3ccc(OCc4ccccn4)c(Cl)c3)c2cc1NC(=O)/C=C/CN(C)C measured=106%
molecule="CCCN(CCC)C(=O)C(CCC(=O)O)NC(=O)c1ccccc1 (stereo not drawn) [Proglumide]" measured=100%
